The values you see were collected from the supplement of paper PMC9112550.

test system: Escherichia coli TOP10; assay: shrunken log2 fold change of peptide-encoding DNA abundance (4.5 h post-induction vs induction); higher = less antimicrobial activity (less host growth inhibition); settings: time post-induction: 4.5 h; library: site-saturation at positions 5, 18, 19, 20
Could you label it TRUE if measured shrunken log2 fold change is 0.005 or higher, and FALSE otherwise?

Determine whether this sequence has shrunken log2 fold change no lower than 0.005: "RRIRNRPPRLPRPRPRPGGYPRP"
FALSE

Determine whether this sequence has shrunken log2 fold change no lower than 0.005: "RRIRMRPPRLPRPRPRPKPRPRP"
TRUE

Determine whether this sequence has shrunken log2 fold change no lower than 0.005: "RRIRDRPPRLPRPRPRPIVHPRP"
FALSE

====

test system: Escherichia coli TOP10; experiment: shrunken log2 fold change of peptide-encoding DNA abundance (4.5 h post-induction vs induction); higher = less antimicrobial activity (less host growth inhibition); conditions: time post-induction: 4.5 h; library: site-saturation at positions 5, 18, 19, 20
Recorded shrunken log2 fold change by entry
Please respond with just the number, no unit label.

Consider the following illustrative entries.
seq	measured_result
RRIRTRPPRLPRPRPRPASIPRP	-0.13
RRIRKRPPRLPRPRPRPPCIPRP	-0.141
RRIRCRPPRLPRPRPRPAPRPRP	0.915

Supply measured shrunken log2 fold change of "RRIRARPPRLPRPRPRPRGHPRP" in your reply.
0.644

Supply measured shrunken log2 fold change of "RRIRIRPPRLPRPRPRPHYEPRP" in your reply.
-0.618

Supply measured shrunken log2 fold change of "RRIRSRPPRLPRPRPRPRITPRP" in your reply.
-0.421

Supply measured shrunken log2 fold change of "RRIRPRPPRLPRPRPRPMWGPRP" in your reply.
0.0327

Supply measured shrunken log2 fold change of "RRIRLRPPRLPRPRPRPCQEPRP" in your reply.
-0.0108

Supply measured shrunken log2 fold change of "RRIRFRPPRLPRPRPRPADYPRP" in your reply.
-0.207

Supply measured shrunken log2 fold change of "RRIRFRPPRLPRPRPRPLFAPRP" in your reply.
0.15

Supply measured shrunken log2 fold change of "RRIRFRPPRLPRPRPRPWHEPRP" in your reply.
-0.00448

Supply measured shrunken log2 fold change of "RRIRNRPPRLPRPRPRPENMPRP" in your reply.
-0.262

====

tested on: Escherichia coli TOP10; assay: shrunken log2 fold change of peptide-encoding DNA abundance (4.5 h post-induction vs induction); higher = less antimicrobial activity (less host growth inhibition); settings: time post-induction: 4.5 h; library: site-saturation at positions 5, 18, 19, 20
Recorded shrunken log2 fold change by entry
Please respond with just the number, no unit label.

Supply measured shrunken log2 fold change of "RRIRQRPPRLPRPRPRPTELPRP" in your reply.
0.124

Supply measured shrunken log2 fold change of "RRIRHRPPRLPRPRPRPMHFPRP" in your reply.
-0.0161

Supply measured shrunken log2 fold change of "RRIRSRPPRLPRPRPRPHIMPRP" in your reply.
-0.393

Supply measured shrunken log2 fold change of "RRIRARPPRLPRPRPRPYLWPRP" in your reply.
0.134

Supply measured shrunken log2 fold change of "RRIRNRPPRLPRPRPRPLWLPRP" in your reply.
-0.181

Supply measured shrunken log2 fold change of "RRIRSRPPRLPRPRPRPQCLPRP" in your reply.
-0.208

Supply measured shrunken log2 fold change of "RRIRARPPRLPRPRPRPHHKPRP" in your reply.
-0.347

Supply measured shrunken log2 fold change of "RRIRPRPPRLPRPRPRPQMWPRP" in your reply.
0.0355

Supply measured shrunken log2 fold change of "RRIRERPPRLPRPRPRPVMWPRP" in your reply.
0.0878

Supply measured shrunken log2 fold change of "RRIRLRPPRLPRPRPRPFYYPRP" in your reply.
-0.666

Supply measured shrunken log2 fold change of "RRIRHRPPRLPRPRPRPHQHPRP" in your reply.
-0.526

====

tested on: Escherichia coli TOP10; assay: shrunken log2 fold change of peptide-encoding DNA abundance (4.5 h post-induction vs induction); higher = less antimicrobial activity (less host growth inhibition); conditions: time post-induction: 4.5 h; library: site-saturation at positions 5, 18, 19, 20
Could you label it Criterion met if measured shrunken log2 fold change is -0.02 or higher, and Criterion not met otherwise?

seq	class_label
RRIRYRPPRLPRPRPRPKRWPRP	Criterion met

Determine whether this sequence has shrunken log2 fold change no lower than -0.02: "RRIRYRPPRLPRPRPRPRQSPRP"
Criterion met

Determine whether this sequence has shrunken log2 fold change no lower than -0.02: "RRIRQRPPRLPRPRPRPFSKPRP"
Criterion not met

Determine whether this sequence has shrunken log2 fold change no lower than -0.02: "RRIRNRPPRLPRPRPRPWPNPRP"
Criterion not met

Determine whether this sequence has shrunken log2 fold change no lower than -0.02: "RRIRWRPPRLPRPRPRPNSMPRP"
Criterion not met

Determine whether this sequence has shrunken log2 fold change no lower than -0.02: "RRIRARPPRLPRPRPRPAIIPRP"
Criterion met

Determine whether this sequence has shrunken log2 fold change no lower than -0.02: "RRIRLRPPRLPRPRPRPKDHPRP"
Criterion not met

====

tested on: Escherichia coli TOP10; assay: shrunken log2 fold change of peptide-encoding DNA abundance (4.5 h post-induction vs induction); higher = less antimicrobial activity (less host growth inhibition); conditions: time post-induction: 4.5 h; library: site-saturation at positions 5, 18, 19, 20
Could you label it Met if measured shrunken log2 fold change is -0.01 or higher, and Not met otherwise?

Please review the following examples before continuing.
seq	class_label
RRIRMRPPRLPRPRPRPVWFPRP	Met
RRIRPRPPRLPRPRPRPTMPPRP	Not met
RRIRIRPPRLPRPRPRPVRFPRP	Not met
RRIRWRPPRLPRPRPRPPAMPRP	Met
RRIRTRPPRLPRPRPRPDLRPRP	Not met

Determine whether this sequence has shrunken log2 fold change no lower than -0.01: "RRIRFRPPRLPRPRPRPYWAPRP"
Not met

Determine whether this sequence has shrunken log2 fold change no lower than -0.01: "RRIRDRPPRLPRPRPRPPYLPRP"
Not met

Determine whether this sequence has shrunken log2 fold change no lower than -0.01: "RRIRFRPPRLPRPRPRPMSCPRP"
Met

====

tested on: Escherichia coli TOP10; test: shrunken log2 fold change of peptide-encoding DNA abundance (4.5 h post-induction vs induction); higher = less antimicrobial activity (less host growth inhibition); details: time post-induction: 4.5 h; library: site-saturation at positions 5, 18, 19, 20
recorded_metric: shrunken log2 fold change

Consider the following illustrative entries.
seq	tgt	shrunken log2 fold change
RRIRYRPPRLPRPRPRPFSSPRP	Escherichia coli TOP10	0.015
RRIRERPPRLPRPRPRPAGVPRP	Escherichia coli TOP10	0.157
RRIRYRPPRLPRPRPRPLMQPRP	Escherichia coli TOP10	-0.283

Note: attention shifts to another entry.
Supply measured shrunken log2 fold change of "RRIRTRPPRLPRPRPRPIRCPRP" in your reply.
0.0185

====

Recorded shrunken log2 fold change by entry
tested on: Escherichia coli TOP10; test: shrunken log2 fold change of peptide-encoding DNA abundance (4.5 h post-induction vs induction); higher = less antimicrobial activity (less host growth inhibition); details: time post-induction: 4.5 h; library: site-saturation at positions 5, 18, 19, 20

seq	measured_result
RRIRDRPPRLPRPRPRPHVFPRP	-0.0358
RRIRYRPPRLPRPRPRPDRHPRP	-0.189
RRIRHRPPRLPRPRPRPHLLPRP	-0.286
RRIRMRPPRLPRPRPRPLWWPRP	0.795
RRIRDRPPRLPRPRPRPSLLPRP	0.05
RRIRLRPPRLPRPRPRPVFYPRP	-0.5
RRIRLRPPRLPRPRPRPHRMPRP	-0.0961
RRIRKRPPRLPRPRPRPNSSPRP	-0.0248

Supply measured shrunken log2 fold change of "RRIRFRPPRLPRPRPRPEECPRP" in your reply.
-0.0175

Supply measured shrunken log2 fold change of "RRIRHRPPRLPRPRPRPGIIPRP" in your reply.
-0.0698

Supply measured shrunken log2 fold change of "RRIRGRPPRLPRPRPRPPCQPRP" in your reply.
0.283

====

test system: Escherichia coli TOP10; test: shrunken log2 fold change of peptide-encoding DNA abundance (4.5 h post-induction vs induction); higher = less antimicrobial activity (less host growth inhibition); settings: time post-induction: 4.5 h; library: site-saturation at positions 5, 18, 19, 20;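 note: peptides expressed intracellularly from a pBAD plasmid library in pooled LB shake-flask culture, induced with 0.3% L-arabinose, DNA abundance read by NGS, three biological replicates, DESeq2 with apeglm shrinkage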
recorded_metric: shrunken log2 fold change
Please respond with just the number, no unit label.

Consider the following illustrative entries.
seq	tgt	shrunken log2 fold change
RRIRYRPPRLPRPRPRPTMTPRP	Escherichia coli TOP10	-0.859
RRIRKRPPRLPRPRPRPWRNPRP	Escherichia coli TOP10	-0.0406

Enter measured shrunken log2 fold change, system Escherichia coli TOP10, for the sequence shown: "RRIRLRPPRLPRPRPRPPQMPRP"
0.304

Enter measured shrunken log2 fold change, system Escherichia coli TOP10, for the sequence shown: "RRIRARPPRLPRPRPRPVNAPRP"
-0.0521

Enter measured shrunken log2 fold change, system Escherichia coli TOP10, for the sequence shown: "RRIRYRPPRLPRPRPRPDHTPRP"
-0.11
